Listed here are compounds together with their documented Emax.
Target: Alpha-2C adrenergic receptor (Homo sapiens)
Sequence (whole entry): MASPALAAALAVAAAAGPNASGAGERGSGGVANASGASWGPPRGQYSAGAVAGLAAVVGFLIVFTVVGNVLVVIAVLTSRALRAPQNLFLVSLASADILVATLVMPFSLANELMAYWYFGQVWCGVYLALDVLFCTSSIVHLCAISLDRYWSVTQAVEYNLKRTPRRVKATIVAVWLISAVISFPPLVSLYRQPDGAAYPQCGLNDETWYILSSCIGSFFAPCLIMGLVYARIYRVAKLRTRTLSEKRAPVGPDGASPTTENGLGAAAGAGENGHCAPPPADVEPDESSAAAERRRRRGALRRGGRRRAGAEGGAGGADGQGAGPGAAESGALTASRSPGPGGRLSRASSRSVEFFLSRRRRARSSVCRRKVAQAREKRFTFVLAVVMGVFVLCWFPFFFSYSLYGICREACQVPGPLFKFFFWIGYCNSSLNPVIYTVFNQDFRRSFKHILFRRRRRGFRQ
Experiment: Agonist activity at recombinant human alpha2c adrenergic receptor expressed in CHOK1 cells co-expressing Gqi5 assessed as induction of cytoplasmic calcium mobilization measured for 40 secs by fluorometric analysis relative to UK14304
Type: functional, cell-based
Conditions: CHO-K1

compound | Emax
CCNCC(=O)N1CCn2cccc2C1c1cccc(Cl)c1 (stereo not drawn) | > 88%
NCCCN(C(=O)c1ccccc1)c1ccccc1 | > 51%
Cc1ccccc1NCc1ccncc1 | > 66%
N#Cc1cccc(-c2ccccc2CCN)c1 | > 75%
CN1CCN(c2ccc(N)cc2)CC1 | > 36%
O=C(CCC1CCCC1)N1CCSC12CCNCC2 | > 82%
Brc1cccc(Cn2ccnc2)c1 | > 105%
COc1ccccc1OCC1CNCCO1 (stereo not drawn) | > 77%

###

target: Alpha-2C adrenergic receptor (Homo sapiens, UniProt P18825); test: Displacement of [3H]-UK14304 from recombinant human alpha2c adrenergic receptor expressed in CHOK1 cell membranes after 30 mins by scintillation counting analysis
Binary call on Ki with cut-off 600 nM: strictly below means Yes, and equality or higher means No.

molecule | group-label
COc1ccc(C2NCCCn3cccc32)cc1 (stereo not given) | No
NCCCN(C(=O)c1ccccc1)c1ccccc1 | No
CN1CCN(c2cccc(N)c2)CC1 | Yes
N#Cc1cccc(-c2ccccc2CCN)c1 | Yes
c1cncc(-c2ccccc2NCc2ccncc2)c1 | No
NCCSc1nc2ccccc2o1 | No
Cc1ccccc1Cn1ccnc1CNC(C)C | No
Cc1ccccc1NCc1cnc[nH]1 | Yes
Cc1ccccc1NCc1ccncc1 | Yes
COc1ccccc1OCC1CNCCO1 (stereo not given) | No

All values here come from ChEMBL document CHEMBL3588743.
